tested on: HEK293T-Rex XBP1-RLuc; experiment: EC50 for XBP1-RLuc reporter activation; conditions: 18 h
measurement-kind: EC50 for XBP1-RLuc reporter activation

N#Cc1c(NC(=O)c2cnccn2)sc2c1CCCC2 | > 17.9 µM
CC1(C)Cc2ccccc2/C(=C/C(=O)C(=O)N/N=C/c2ccc(O)c(O)c2)N1 | 6.13 µM
COc1ccccc1-c1cnnc(N/N=C/c2c[nH]c3ccccc23)n1 | > 16.9 µM
Cc1ccc(O)c(NC(=O)CSc2ccccc2)c1 | > 16.9 µM
O=[N+]([O-])c1ccc2nc(/C=C/c3ccccc3)[nH]c2c1 | > 16.9 µM
Cc1ccc(O)c(N=CC2=C(O)c3ccccc3C2=O)c1 | > 16.9 µM

Problem: Any idea what its EC50 for XBP1-RLuc reporter activation is? The compound is Cn1cccc1/C=C1/SC(=Nc2ccccc2)NC1=O
Result: > 16.7 µM

Problem: Any idea what its EC50 for XBP1-RLuc reporter activation is? The compound is O=C(N/N=C\c1ccccc1[N+](=O)[O-])c1[nH]nc2c1CCc1ccccc1-2
Result: > 16.9 µM

Problem: Any idea what its EC50 for XBP1-RLuc reporter activation is? The compound is CCOc1ccc(/C=C(\C#N)c2[nH]nc(N)c2C#N)cc1OCC
Result: > 16.9 µM

Problem: Any idea what its EC50 for XBP1-RLuc reporter activation is? The compound is COc1cc(/C=C/c2ccc(O)c(OC)c2)ccc1O
Result: 8.73 µM

Problem: Any idea what its EC50 for XBP1-RLuc reporter activation is? The compound is COc1ccc(-c2cnnc(N/N=C/c3ccc(O)c(O)c3)n2)cc1
Result: 16.8 µM

Problem: Any idea what its EC50 for XBP1-RLuc reporter activation is? The compound is C=CCNC(=O)c1cc(-c2ccccc2)on1
Result: > 16.9 µM

Problem: Any idea what its EC50 for XBP1-RLuc reporter activation is? The compound is CCCNC(=O)c1ccc2nc(-c3ccc4[nH]ccc4c3)sc2c1
Result: > 17.4 µM

Problem: Any idea what its EC50 for XBP1-RLuc reporter activation is? The compound is COc1ccc(C2=Nn3c(nnc3-c3ccc(OC)cc3)SC2)cc1
Result: > 16.9 µM

Just for reference, the supplement of paper PMC4954754 is where these values come from.
